# tested-on: human GLP-1 receptor (human, UniProt P43220 24-463)
# measurement-notes: cell-based or functional assay
Listed next: entries and their corresponding EC50, cAMP.

binder: YXEGTXTSDXSIXLDXIAQXKFIKXLIEGGPSSGAPPPS (Aib2, αMeF(2F)6, 4Pal10, αMeL13, Orn16, Aib20, αMeY25, K21 and K24: K(AEEA2-(γ-Glu)-CO-(CH2)12-CO2H), C-terminal NH2) [Example 69]
u: pM
EC50, cAMP: 276
//
binder: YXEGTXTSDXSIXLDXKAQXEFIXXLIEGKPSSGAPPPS (Aib2, αMeF(2F)6, 4Pal10, αMeL13, Orn16, Aib20, D-Glu24, αMeY25, K17 and K30: K(AEEA2-(γ-Glu)-CO-(CH2)14-CH3), C-terminal NH2) [Example 24]
u: pM
EC50, cAMP: 6.3
//
binder: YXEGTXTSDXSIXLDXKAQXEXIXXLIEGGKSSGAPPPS (Aib2, αMeF(2F)6, 4Pal10, αMeL13, Orn16, Aib20, 2FPhe22, D-Glu24, αMeY25, K17 and K31: K(AEEA2-(γ-Glu)-CO-(CH2)12-CO2H), C-terminal NH2) [Example 63]
u: pM
EC50, cAMP: 1860
//
binder: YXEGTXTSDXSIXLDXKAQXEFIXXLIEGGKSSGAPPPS (Aib2, αMeF(2F)6, 4Pal10, αMeL13, Orn16, Aib20, D-Glu24, αMeY25, K17 and K31: K((γ-Glu)-AEEA-CO-(CH2)12-CO2H), C-terminal NH2) [Example 42]
u: pM
EC50, cAMP: 429
//
binder: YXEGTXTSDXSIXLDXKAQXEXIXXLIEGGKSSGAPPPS (Aib2, αMeF(2F)6, 4Pal10, αMeL13, Orn16, Aib20, 3,5FPhe22, D-Glu24, αMeY25, K17 and K31: K(AEEA2-(γ-Glu)-CO-(CH2)12-CO2H), C-terminal NH2) [Example 65]
u: pM
EC50, cAMP: 300
//
binder: YXEGTXTSDXSIXLDXIAQXEFIXXLIKGGKSSGAPPPS (Aib2, αMeF(2F)6, 4Pal10, αMeL13, Orn16, Aib20, D-Glu24, αMeY25, K28 and K31: K(AEEA2-(γ-Glu)-CO-(CH2)12-CO2H), C-terminal NH2) [Example 20]
u: pM
EC50, cAMP: 552
